assay-target: 7 N11 nucleosome labeled at H4 E63C with Alexa Fluor 488 (human)
procedure-text: fluorescence polarisation
reported-endpoint: Kd (nM)
Only the number, expressed in nM, is required.

Kindly note: 7 N11 nucleosome labeled at H4 E63C with Alexa Fluor 488 (human), dephosphorylated SMARCAD1 (from UniProt Q9H4L7 1-1026) (enzyme) , Kd value reported: 90

====

assay-target: histones: H3-H4 (Alexa Fluor 488–H4) and H2A-H2B (Atto647N H2B) mixed at 10 nM (human)
procedure-text: FRET or BRET
reported-endpoint: Kd (nM)
Use nM as the unit, but write only the number.

The recorded Kd for entry dephosphorylated SMARCAD1 (from UniProt Q9H4L7 1-1026) (enzyme) equals 2.1

====

assay-target: histones: H3-H4 (Alexa Fluor 488–H4) and H2A-H2B (Atto647N H2B) mixed at 10 nM (human)
procedure-text: FRET or BRET
reported-endpoint: pKd
Would you please state pKd, meaning minus log10 of the concentration in mol/L, as a bare number?

// pKd value for dephosphorylated SMARCAD1 (from UniProt Q9H4L7 1-1026) (enzyme) : 8.89

Recorded values, source paper PMC8519567.
